run description: in vivo
assay conditions: mouse, po, 50 mg/kg
measured endpoint: concentration at 1 h (ng/mL)
Number in ng/mL, nothing else.

Query Cc1ncc([N+](=O)[O-])n1CCO [Flagyl] yields concentration at 1 h of 15000

###

run description: in vivo
assay conditions: mouse, sc, 25 mg/kg
measured endpoint: concentration at 0.5 h (ng/mL)
Number in ng/mL, nothing else.

Query Cc1ncc([N+](=O)[O-])n1CCO [Flagyl] yields concentration at 0.5 h of 15000

###

run description: in vivo
assay conditions: mouse, sc, 100 mg/kg
measured endpoint: concentration at 0.5 h
Field note: include the unit after the figure.

Query Cc1ncc([N+](=O)[O-])n1CCO yields concentration at 0.5 h of 121 µg/mL

###

run description: in vivo
assay conditions: ip, LD50, ip
measured endpoint: LD50 (mg/kg)
Number in mg/kg, nothing else.

Query COC(=O)C1C(C)OC2(C)CC(=O)C3OC12OC(C(C)/C=C(C)/C=C/C(=O)C1=C(O)CN(C)C1=O)C3C (stereo not shown) [Bu-2313A] yields LD50 of 14

###

run description: in vivo
assay conditions: mouse, sc, 50 mg/kg
measured endpoint: concentration at 0.5 h
Field note: include the unit after the figure.

Query Cc1ncc([N+](=O)[O-])n1CCO yields concentration at 0.5 h of 32000 ng/mL

###

run description: in vivo
assay conditions: mouse, sc, 50 mg/kg
measured endpoint: concentration at 2 h (ng/mL)
Number in ng/mL, nothing else.

Query Cc1ncc([N+](=O)[O-])n1CCO yields concentration at 2 h of 12000

###

run description: in vivo
assay conditions: mouse, po, 100 mg/kg
measured endpoint: concentration at 5 h
Field note: include the unit after the figure.

Query Cc1ncc([N+](=O)[O-])n1CCO yields concentration at 5 h of 13000 ng/mL

###

run description: in vivo
assay conditions: po, LD50, po
Counter-ions that a name gives are not always drawn.
measured endpoint: LD50 (mg/kg)
Number in mg/kg, nothing else.

Query COC(=O)C1C(C)OC2(C)CC(=O)C3OC12OC(C(C)/C=C(C)/C=C/C(=O)C1=C(O)CN(C)C1=O)C3C (centres unmarked) [Bu-2313A] yields LD50 of 90

Query COC(=O)C1C(C)OC2(C)CC(=O)C3OC12OC(C(C)/C=C(C)/C=C/C(=O)C1=C(O)CNC1=O)C3C (centres unmarked) [Bu-2313B (Na salt)] yields LD50 of 280

###

run description: pKa' by titration in aqueous ethanol
Type: physicochemical
assay conditions: 50% aqueous ethanol
measured endpoint: pKa
I'd appreciate a reply containing only the number, no unit.

Query COC(=O)C1C(C)OC2(C)CC(=O)C3OC12OC(C(C)/C=C(C)/C=C/C(=O)C1=C(O)CN(C)C1=O)C3C (stereo not shown) [Bu-2313A] yields pKa of 5.2

###

run description: in vivo
assay conditions: mouse, po, 25 mg/kg
measured endpoint: concentration at 1 h
Field note: include the unit after the figure.

Query Cc1ncc([N+](=O)[O-])n1CCO yields concentration at 1 h of 6700 ng/mL

###

run description: in vivo
assay conditions: mouse, po, 25 mg/kg
measured endpoint: concentration at 3 h (ng/mL)
Number in ng/mL, nothing else.

Query Cc1ncc([N+](=O)[O-])n1CCO [Flagyl] yields concentration at 3 h of 6100

###

run description: in vivo
assay conditions: mouse, sc, 50 mg/kg
measured endpoint: concentration at 1 h

Query Cc1ncc([N+](=O)[O-])n1CCO yields concentration at 1 h of 26000 ng/mL

###

Give measured ED50 for each item. Keep answers brief.
Test system: S. pyogenes A20201
run description: Systemic infection with S. pyogenes in mice
Assay type: in vivo
assay conditions: Streptococcus pyogenes, A20201, 120 h; sc, just before challenge; determined after 5 days; read-out: PD50
Number in mg/kg, nothing else.

Field ED50 (S. pyogenes A20201), entry CCC[C@@H]1C[C@@H](C(=O)N[C@@H]([C@H]2O[C@H](SC)[C@H](O)[C@@H](O)[C@H]2O)[C@H](C)Cl)N(C)C1 : 0.3

Field ED50 (S. pyogenes A20201), entry CC(/C=C/C(=O)C1=C(O)CNC1=O)=C\C(C)C1OC2(C)OC(C(=O)C3OC32C)C1C (stereo not shown) [Tirandamycin, reference compound] : 9.7

Field ED50 (S. pyogenes A20201), entry COC(=O)C1C(C)OC2(C)CC(=O)C3OC12OC(C(C)/C=C(C)/C=C/C(=O)C1=C(O)CNC1=O)C3C (stereo not shown) [Bu-2313B] : 9

Field ED50 (S. pyogenes A20201), entry COC(=O)C1C(C)OC2(C)CC(=O)C3OC12OC(C(C)/C=C(C)/C=C/C(=O)C1=C(O)CN(C)C1=O)C3C (stereo not shown) [Bu-2313A] : 7.6

###

run description: in vivo
assay conditions: mouse, sc, 25 mg/kg
measured endpoint: concentration at 1 h
Field note: include the unit after the figure.

Query Cc1ncc([N+](=O)[O-])n1CCO yields concentration at 1 h of 12000 ng/mL

###

run description: in vivo
assay conditions: mouse, po, 50 mg/kg
measured endpoint: concentration at 3 h (ng/mL)
Number in ng/mL, nothing else.

Query Cc1ncc([N+](=O)[O-])n1CCO [Flagyl] yields concentration at 3 h of 11000

###

run description: in vivo
assay conditions: mouse, po, 100 mg/kg
measured endpoint: concentration at 1 h (ng/mL)
Number in ng/mL, nothing else.

Query Cc1ncc([N+](=O)[O-])n1CCO yields concentration at 1 h of 41000
